B1: DCAF4 (parent)
chain: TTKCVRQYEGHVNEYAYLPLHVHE

variants of: B1; experiment: protein stability index of a GFP-peptide fusion (GPS, HEK-293T) (PSI 1-6); higher = more stable; conditions: c terminus: a fixed tail appended;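 note: lentivirally expressed fusions sorted by FACS into six bins by GFP to DsRed ratio, PSI derived from sequencing read proportions per bin multiplied by bin number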
measured quantity: protein stability index
Answer using only a numeral; do not append any unit.

// solved cases for protein stability index follow
INSERT INTO assay_data (variant_descriptor, measured_quantity, measured_value) VALUES
  ('V22A', 'protein stability index', 2.79),
  ('L18Q', 'protein stability index', 3.16),
  ('K3L', 'protein stability index', 2.6);

Field request: protein stability index | item: "A16C"
2.44
